Test system: MOLT-4 leukemia
Assay: NCI tumour cell line growth inhibition, 48 h; in the data active means GI50 below about 0.43 µM; inactive means the rest
Result category, one only: y for active, n for inactive

Field: example entries. Status: answers known.
COc1ccc(-c2nc3cc(C)ccc3n2CC(=O)N=Nc2c(O)[nH]c3ccc(Cl)cc23)cc1 = n
CNc1nc2ccccc2n2c(-c3ccc(O)c(O)c3)cnc12 = y
COc1ccc(-c2nc3cc(C)ccc3n2CC(=O)N=Nc2c(O)[nH]c3ccccc23)cc1 = n

Next:
Q: Check the results log: what was the call for `O=C1Nc2ccc(F)cc2/C1=C/c1cccc(OCc2ccccn2)c1` ?
Result: n

====

Measured GI50 of individual entries
System: MDA-MB-468 breast
Test: NCI tumour cell line growth inhibition, 48 h

C=CCSc1n[nH]c(-c2cccs2)n1 = > 100000 nM
CCn1c2ccccc2c2cc(-n3nncc3-c3ccccc3)ccc21 = 437 nM
CNc1nc2ccccc2n2c(-c3ccc(O)c(O)c3)cnc12 = < 10 nM
CCN(C)S(=O)(=O)Nc1cccc(Nc2ncnc3cc(NC(=O)CCl)ccc23)c1Cl = 2340 nM
O=S(=O)(Nc1ccc(Cl)c(C(F)(F)F)c1)c1ccc(-c2cnc(C3CC3)o2)cc1 = 144 nM
COc1cc(/C=C2\C(=O)N(c3c(Cl)cccc3Cl)c3ccccc32)cc(OC)c1O = 2270 nM

Q: Please give the measured GI50 for this compound: `CCOC(=O)C(=Cc1ccc(Br)cc1)C(=O)OCC`
Result: 1670 nM

Q: Please give the measured GI50 for this compound: `Cc1cc(NC(=O)CCc2ccc(N3C(N)=NC(N)=NC3(C)C)cc2)ccc1S(=O)(=O)F`
Result: 736 nM

Q: Please give the measured GI50 for this compound: `O=C(NNc1nc2cc(F)ccc2n2c(CN3CC4(COC4)C3)ccc12)c1cnccn1`
Result: 302 nM

Q: Please give the measured GI50 for this compound: `O=C(Nc1ccc(-n2cc(-c3ccncc3)c(-c3ccc(Cl)c(O)c3)n2)cc1)c1cc(Cl)cc(Cl)c1`
Result: 6070 nM

Q: Please give the measured GI50 for this compound: N#CC1=C(N)Oc2c(sc3c(F)cccc23)C1c1ccc([N+](=O)[O-])cc1 (centres undefined)
Result: 78.7 nM

Q: Please give the measured GI50 for this compound: `O=C1C(Nc2ccccn2)=C(I)C(=O)c2ncccc21`
Result: 1220 nM

Q: Please give the measured GI50 for this compound: `COC(=O)c1c2c(c(C)[n+]([O-])c1C)C(=O)C(NCc1ccc(F)c(Cl)c1)=CC2=O`
Result: 1120 nM

Q: Please give the measured GI50 for this compound: `O=C(Oc1ccc([N+](=O)[O-])cc1)N1CCC(C(O)(c2ccc3c(c2)OCO3)c2ccc3c(c2)OCO3)CC1`
Result: > 100000 nM
